system: SN12C; assay: NCI tumour cell line growth inhibition, 48 h
The source made the active and inactive calls. Rule as the data show it: active = GI50 up to about 1.1 µM and inactive = higher.
What GI50 was measured for each of the following?

CC1(C)COC(c2ccccc2-c2ccccc2)=N1 : > 100 µM (inactive)
COc1cccc2c1Cc1cc(-c3ccccc3)[n+](C)n1-2 : 8.85 µM (inactive)
CCOC(=O)C1C(=O)CC(C)(O)C(C(=O)OCC)C1c1ccc(O)c(OC)c1 (stereo unspecified) : > 100 µM (inactive)
[N-]=[N+]=C1CNC(=O)NC1=O : > 100 µM (inactive)

Answer for every listed entry: what is its GI50? The entries follow.
1. Cc1cc2c(cc1C)C(=O)/C(=N/Nc1ccc(F)cc1)CCO2
2. COC(=O)[C@@]12CC(C(C)C)[C@H]3CC(C(=O)C=C1OC)[C@H]32 (stereo partly specified)
3. CCN(C1=CC(=O)NC2CCCCN12)c1ccccc1 (stereo unspecified)
4. Cn1c2c(cc(-c3ccccc3)c1=O)COc1ccccc1-2
5. CCOC(=O)N1c2c(ccn2C)-c2ccn(C)c2N1C(=O)OCC
6. O=C1NC(=S)N/C1=C\c1ccc(Sc2ccccc2C(=O)O)s1
7. Cn1nc(-c2ccccc2)c(C(=O)/C=C/c2ccccc2)c(N2CCOCC2)c1=O

a:
["> 100 µM (inactive)", "> 100 µM (inactive)", "> 100 µM (inactive)", "35 µM (inactive)", "15.8 µM (inactive)", "> 100 µM (inactive)", "21.4 µM (inactive)"]

====

test system: A498; experiment: NCI tumour cell line growth inhibition, 48 h
Activity calls are given as the source filed them. No stated cut-off is given here; in the data, active = GI50 up to about 1.1 µM and inactive = higher.
Please respond with reported GI50 for every item in the list.

Guide cases for GI50, answers given:
CC(C)(C)c1cc(-c2cc(C(C)(C)C)[nH]n2)[nH]n1 : > 100 µM (inactive)
CC12CCCCC1(C)C2Sc1ccccc1 (stereo not given) : > 50.4 µM (inactive)

For each listed entry, give its GI50.
1. Cc1cn([C@@H]2C[C@H](CO)[C@@H]2O)c(=O)[nH]c1=O
2. O[C@H]1[C@H](O)[C@@H](O)CN2CC[C@H](O)[C@H]12
3. CC1=NN(c2cccc(S(=O)(=O)O)c2)C2(C1)SCC(=O)N2c1nc2ccccc2s1 (stereo not given)
4. COC(=O)C(C)Sc1nc2cc(Cl)ccc2s1 (stereo not given)
5. OC1C=C2C3CN(Cc4cc5c(cc43)OCO5)[C@H]2C[C@@H]1O (stereo not given in full)
6. COc1cc2c3c(c1OC)C1(C=CC(=O)C=C1)CC3NCC2 (stereo not given)
7. CN(C)CCC(=O)N1C/C(=C\c2ccc(Cl)c(Cl)c2)C(=O)/C(=C/c2ccc(Cl)c(Cl)c2)C1

a:
1. > 100 µM (inactive)
2. > 100 µM (inactive)
3. > 100 µM (inactive)
4. > 100 µM (inactive)
5. 6.87 µM (inactive)
6. > 100 µM (inactive)
7. 1.32 µM (inactive)

q: Which measured GI50 value corresponds to O=[N+]([O-])c1ccc(/C=N/CC2CCCN3CCCCC23)cc1 (stereo not given) ?
a: > 100 µM (inactive)

====

test system: ACHN; assay: NCI tumour cell line growth inhibition, 48 h
Active and inactive are the calls of the source. Rule as the data show it: active = GI50 up to about 1.1 µM and inactive = higher. Residues, ends and D or L forms follow the SMILES beside them. *: point of attachment. Pentanoyl = CCCCC(=O)*; Boc = CC(C)(C)OC(=O)*
Provide the recorded GI50 for the entries that follow.

CCCCC(=O)Oc1ccc(CC(NC(=O)OC(C)(C)C)C(=O)NC(C)C(=O)NC(Cc2ccccc2)C(=O)NCC(N)=O)cc1 (stereo not given) (Boc-Y(Pentanoyl)AFG-NH2; configuration not given here) : > 100 µM (inactive)
C/C(=N\Nc1ccc([N+](=O)[O-])cc1[N+](=O)[O-])c1sc(-n2nc(-c3ccccc3)cc2-c2ccccc2)nc1C : 16.6 µM (inactive)
S=C1NN=C2C(=C3CCCC4C5CCCCC5N2C34)N1 (stereo not given) : > 100 µM (inactive)

Hey, quick one: what's GI50 for each of these?
1. O=C(N[C@H](CO)[C@H](O)c1ccc([N+](=O)[O-])cc1)C(Cl)Cl
2. COc1cc2c(cc1C)NC(=O)/C2=C\c1cccnc1
3. O=C(O)c1ccccc1CC(Cc1ccccc1)C(=O)O (stereo not given)
4. N=CCCN(CCC=N)c1ccc(/C=C2\CN(NC(=O)c3ccc(Cl)cc3)C(c3ccccc3)=N2)cc1
5. CC1=C(C(=O)Nc2c(C)cccc2C)C(c2ccccc2Cl)C(C(=O)Nc2c(C)cccc2C)=C(C)N1

a:
["> 100 µM (inactive)", "26.9 µM (inactive)", "> 100 µM (inactive)", "> 100 µM (inactive)", "> 100 µM (inactive)"]

Hey, quick one: what's GI50 for each of these?
1. COc1ccc(C2=Nc3c(nc(SC)[nH]c3=O)NC(c3ccccc3)C2)cc1 (stereo not given)
2. O=C(O)C(=O)/C=C\c1ccc(Cl)cc1

a:
1. 21.8 µM (inactive)
2. > 100 µM (inactive)

====

tested on: CCRF-CEM; experiment: NCI tumour cell line growth inhibition, 48 h
Active and inactive are the calls of the source. Cut-off read from the data, not from the text of the source: active = GI50 up to about 1.1 µM and inactive = higher.
The reply should name one outcome from active, inactive

q: For this compound, state the assay outcome: "Oc1ccc(Cl)cc1CN1CCN(Cc2cc(Cl)ccc2O)C1"
a: active

q: For O=C(O)CCC1COc2ccccc2O1 (stereo not given) , which call appears in the assay record?
a: inactive

q: Short answer needed: outcome of this test for O=C(Nc1ccc2[nH]c(C(=O)N3CC(CCl)c4c3cc([N+](=O)[O-])c3ccccc43)cc2c1)c1cc2ccccc2o1 (stereo not given) ?
a: inactive

q: Hi team, can someone confirm the assay call for CC1NC(=O)c2c(-c3ccccc3)nn(-c3ccccc3)c2NC1=O (stereo not given) ?
a: inactive

q: Kindly provide the recorded test outcome for the following compound: "COC(=O)C1=C(C)NC(C)=C(C(=O)OC)C1c1cccc(N=O)c1"
a: inactive

====

tested on: HL-60; assay: NCI tumour cell line growth inhibition, 48 h
Activity calls are given as the source filed them. Rule as the data show it: active = GI50 up to about 1.1 µM and inactive = higher.
Outcomes you can answer with include only these: TRUE = active, FALSE = inactive

Nc1nc(=O)n(C2OC(CO)C(O)C2O)cc1F (stereo not given) : TRUE
COc1cccc(CC2C(=O)N/C(=N\C(C)=O)N2C)c1OC(C)=O (stereo not given) : FALSE
CC(=O)OC(C)(C)/C=C/C(=O)[C@](C)(O)[C@H]1[C@H](O)C[C@@]2(C)[C@@H]3CC=C4[C@@H](C[C@H](O)C(=O)C4(C)C)[C@]3(C)C(=O)C[C@]12C : TRUE
COc1cccc2c1Cc1cc(-c3ccccc3)[n+](C)n1-2 : FALSE

q: Lab log entry: "O=c1[nH][nH]c(=O)n1CCCCCCn1c(=O)[nH][nH]c1=O" — outcome as called in the assay?
a: FALSE

q: Hi team, can someone confirm the assay call for C=C1CC(COc2cc(=O)oc3ccccc23)(c2ccccc2)OC1=O (stereo not given) ?
a: TRUE

q: Could you check what this test reported for "Cc1c(Cl)c(C)c(Cl)c(O)c1Cl" ?
a: FALSE

q: Lab log entry: "CN(C)c1snc2c1c(=O)n(C)c(=O)n2C" — outcome as called in the assay?
a: FALSE

q: Returns: the outcome recorded for "CC(=O)Nc1n[n+]([O-])c2cc(C)ccc2[n+]1[O-]" in this assay.
a: FALSE

q: Test call, this molecule: "CN(C)c1ccc(/C=C2\N=C(N/N=C/c3ccccc3)NC2=O)cc1"
a: FALSE

====

tested on: K562; assay: NCI tumour cell line growth inhibition, 48 h
The source made the active and inactive calls. Cut-off read from the data, not from the text of the source: active = GI50 up to about 1.1 µM and inactive = higher.
Tick one outcome: active, inactive

q: Identify the outcome logged in this assay for the compound shown: CSC1SCC2C(=O)N(C)C3(CC3C)C(=O)OCC(NC(=O)c3nc4ccccc4cc3O)C(=O)NC(C)C(=O)N(C)C1C(=O)N(C)C1(CC1C)C(=O)OCC(NC(=O)c1nc3ccccc3cc1O)C(=O)NC(C)C(=O)N2C (stereo not given)
a: active

q: Tell me the assay call for "O=C(N=C1N(c2ccccc2)C(=O)C(=O)N1c1ccccc1)c1ccccc1" please.
a: inactive

q: What call does the record list for O=C(O)c1ccccc1CC(Cc1ccccc1)C(=O)O (stereo not given) ?
a: inactive

q: How did this test come out for "COc1ccc(CNc2nc(NCc3ccc(OC)cc3)nc(N3CCOCC3)n2)cc1" ?
a: inactive

q: Identify the outcome logged in this assay for the compound shown: "NS(=O)(=O)c1ccc(NC(=O)N/N=C/c2ccccc2[N+](=O)[O-])cc1"
a: inactive

q: So what was the verdict on C=CCCC1(C)CCCNC1=S (stereo not given) in this test?
a: inactive

q: Outcome logged for N=c1[nH]cnc2c1nnn2C1C=CC(COS(N)(=O)=O)C1 (stereo not given) in this assay:
a: inactive

q: Dear all, I need the recorded test outcome for S=C1NC(c2ccccc2)NC(c2ccccc2)S1 (stereo not given) , thank you.
a: inactive

q: Given COC(=O)[C@@H]1C2OC(C)(C)OC2CN1C(=O)OCc1ccccc1 (stereo not given in full) , state the outcome it received in this test.
a: inactive
